B1: HDV Ribozyme (parent)
chain: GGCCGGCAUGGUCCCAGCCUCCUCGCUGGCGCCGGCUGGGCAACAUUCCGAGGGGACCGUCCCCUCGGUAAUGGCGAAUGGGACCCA

# Variants of: B1
# assay_comment: self-cleavage, relative activity (ratio to wild type); higher = more cleavage; co-transcriptional
variants and their reported self-cleavage
Lab note: record just the number, no unit beside it.

Would you please look over these solved cases?
>  <variant_descriptor>
G25C G54A

>  <self-cleavage>
0.219

$$$$
>  <variant_descriptor>
C3G G38U

>  <self-cleavage>
0.166

$$$$
>  <variant_descriptor>
G59A C61U

>  <self-cleavage>
1.11

$$$$
>  <variant_descriptor>
G6A C62G

>  <self-cleavage>
0.441

$$$$
>  <variant_descriptor>
G17C C61U

>  <self-cleavage>
0.383

$$$$

self-cleavage measured on A43U G82U = 0.0923

self-cleavage measured on C62A C66G = 0.623

self-cleavage measured on G2C G6U = 0.0601
